Biological target: human TYK2 (JH2domain-pseudokinase) (Homo sapiens (Human), UniProt P29597)
Sequence (P29597 556-888): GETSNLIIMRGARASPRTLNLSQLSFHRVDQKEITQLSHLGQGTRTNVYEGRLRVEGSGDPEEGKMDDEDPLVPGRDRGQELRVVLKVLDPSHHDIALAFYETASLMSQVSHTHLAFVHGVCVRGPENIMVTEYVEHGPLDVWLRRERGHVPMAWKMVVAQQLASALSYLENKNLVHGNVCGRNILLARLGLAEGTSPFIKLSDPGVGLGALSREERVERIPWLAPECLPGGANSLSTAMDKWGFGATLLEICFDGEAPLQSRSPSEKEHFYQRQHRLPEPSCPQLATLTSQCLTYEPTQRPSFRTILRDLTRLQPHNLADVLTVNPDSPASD
Assay: TYK2 JH2 Domain Binding Assay (KINOMEscan)
pKd: −log10 of the molar value.
OBSERVATION_TYPE: pKd

COMPOUND | pKd
[2H]C([2H])([2H])Oc1ncccc1Nc1cc(NC)n2ncc(C(=O)N[C@H]3CCC[C@H](O)C3)c2n1 [I-460] | > 9.70
[2H]C([2H])([2H])Oc1ncccc1Nc1cc(NC)n2ncc(C(=O)NCCC(C)(C)O)c2n1 | 9.00 to 9.70

# next compound below
Query: Which pKd is listed for CNc1cc(Nc2cccnc2O[C@H]2C[C@@H](OC)C2)nc2c(C(=O)NC3CCC3)cnn12 ?
Response: > 9.70

###

Target: human TYK2 (JH2domain-pseudokinase) (Homo sapiens (Human))
Assay: TYK2 JH2 Domain Binding Assay (KINOMEscan)
Measured Kd values are reported for all entries that follow.

Query: Which Kd is listed for CNc1cc(Nc2cccn3ccnc23)nc2c(C(=O)NC3CC3)cnn12 ?
Response: < 0.2 nM

Query: Which Kd is listed for CNc1cc(Nc2cccn(-c3cccc(F)c3)c2=O)nc2c(C(=O)N[C@@H]3CC[C@H]3O)cnn12 ?
Response: < 0.2 nM

Query: Which Kd is listed for CNc1cc(Nc2cccn([C@H]3CCCN(CCF)C3)c2=O)nc2c(C(=O)N[C@@H]3CC[C@H]3OC)cnn12 [I-1216] ?
Response: 0.2 to 1 nM

Query: Which Kd is listed for CNc1cc(-c2cn(CCN3CCCCC3)c3ncccc23)nc2c(C(=O)N[C@H]3C[C@H]3F)cnn12 ?
Response: < 0.2 nM

Query: Which Kd is listed for CNc1cc(Nc2cccn([C@H]3CCC[C@H](OC)C3)c2=O)nc2c(C(=O)NC3CC3)cnn12 ?
Response: < 0.2 nM

Query: Which Kd is listed for CNc1cc(Nc2cccc(N3CCC4(CCCO4)CC3)n2)nc2c(C(=O)N[C@H]3C[C@H]3F)cnn12 ?
Response: < 0.2 nM

Query: Which Kd is listed for CNc1cc(Nc2cccn(-c3cc(C)nn3C)c2=O)nc2c(C(=O)NC3CC3)cnn12 ?
Response: 0.2 to 1 nM

Query: Which Kd is listed for CNc1cc(Nc2cccc(N3CCOC3=O)n2)nc2c(C(=O)NC3CCC3)cnn12 ?
Response: < 0.2 nM

###

Measured pIC50 values are reported for all entries that follow.
Molecular target: JAK2/JAK2 homdimeric complex (Homo sapiens (Human), UniProt O60674)
Sequence (O60674 whole entry): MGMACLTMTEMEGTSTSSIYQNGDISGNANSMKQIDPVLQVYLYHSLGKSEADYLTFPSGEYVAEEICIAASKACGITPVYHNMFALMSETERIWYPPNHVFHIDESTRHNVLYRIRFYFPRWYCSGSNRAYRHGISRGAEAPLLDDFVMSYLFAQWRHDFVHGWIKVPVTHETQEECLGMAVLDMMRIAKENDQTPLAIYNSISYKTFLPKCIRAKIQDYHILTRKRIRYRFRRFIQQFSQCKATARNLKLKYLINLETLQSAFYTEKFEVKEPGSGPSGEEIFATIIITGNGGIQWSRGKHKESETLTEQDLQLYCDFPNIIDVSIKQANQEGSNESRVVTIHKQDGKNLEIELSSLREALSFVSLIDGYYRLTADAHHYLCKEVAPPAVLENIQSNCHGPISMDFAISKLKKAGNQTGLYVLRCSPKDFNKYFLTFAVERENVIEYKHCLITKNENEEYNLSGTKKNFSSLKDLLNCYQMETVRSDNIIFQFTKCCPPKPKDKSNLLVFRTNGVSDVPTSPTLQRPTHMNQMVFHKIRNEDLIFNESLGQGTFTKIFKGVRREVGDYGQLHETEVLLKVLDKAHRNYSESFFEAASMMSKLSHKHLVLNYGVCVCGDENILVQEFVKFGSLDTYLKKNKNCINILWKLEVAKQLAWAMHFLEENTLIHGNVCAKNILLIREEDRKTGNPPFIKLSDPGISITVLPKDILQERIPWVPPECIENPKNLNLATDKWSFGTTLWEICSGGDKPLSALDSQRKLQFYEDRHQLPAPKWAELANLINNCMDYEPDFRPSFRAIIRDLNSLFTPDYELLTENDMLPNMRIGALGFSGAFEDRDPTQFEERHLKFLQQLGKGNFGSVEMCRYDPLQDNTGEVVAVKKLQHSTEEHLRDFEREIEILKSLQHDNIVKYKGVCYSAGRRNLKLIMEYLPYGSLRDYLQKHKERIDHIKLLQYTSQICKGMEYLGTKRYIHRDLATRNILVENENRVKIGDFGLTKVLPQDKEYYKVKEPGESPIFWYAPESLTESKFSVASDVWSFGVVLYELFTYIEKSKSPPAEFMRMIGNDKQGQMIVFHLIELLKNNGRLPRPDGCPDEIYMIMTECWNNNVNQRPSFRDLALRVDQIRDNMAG
Sequence (P32927 17-897 partner): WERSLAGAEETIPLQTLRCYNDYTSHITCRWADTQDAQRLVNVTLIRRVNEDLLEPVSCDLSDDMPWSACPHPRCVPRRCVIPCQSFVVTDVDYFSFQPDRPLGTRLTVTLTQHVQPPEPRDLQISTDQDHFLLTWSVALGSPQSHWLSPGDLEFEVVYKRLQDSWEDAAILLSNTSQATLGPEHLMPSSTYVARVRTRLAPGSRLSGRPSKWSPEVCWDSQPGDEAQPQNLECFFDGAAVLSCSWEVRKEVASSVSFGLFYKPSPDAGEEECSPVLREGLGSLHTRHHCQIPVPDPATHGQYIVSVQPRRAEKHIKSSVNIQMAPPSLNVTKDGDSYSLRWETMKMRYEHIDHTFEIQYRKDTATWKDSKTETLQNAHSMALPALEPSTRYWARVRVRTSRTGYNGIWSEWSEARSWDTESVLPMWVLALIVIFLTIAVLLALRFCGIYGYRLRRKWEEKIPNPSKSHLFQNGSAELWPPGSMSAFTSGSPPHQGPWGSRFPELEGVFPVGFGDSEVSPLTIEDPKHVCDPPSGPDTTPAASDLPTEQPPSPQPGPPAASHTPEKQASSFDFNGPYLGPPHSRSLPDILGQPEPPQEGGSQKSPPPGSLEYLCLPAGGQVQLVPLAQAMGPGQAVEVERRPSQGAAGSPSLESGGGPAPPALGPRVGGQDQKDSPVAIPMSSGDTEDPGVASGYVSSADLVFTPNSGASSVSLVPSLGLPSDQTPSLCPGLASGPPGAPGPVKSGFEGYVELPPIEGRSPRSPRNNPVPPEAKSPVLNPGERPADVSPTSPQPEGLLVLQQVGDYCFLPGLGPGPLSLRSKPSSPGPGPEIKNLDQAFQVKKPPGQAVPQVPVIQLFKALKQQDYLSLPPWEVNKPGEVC
Assay: GM-CSF Induced pSTAT5 in Human PBMC
Settings: GM-CSF 5 ng/mL for 20 minutes, pSTAT5 by MSD, read-out: PBMC_GMCSF_pSTAT5 IC50
pIC50: −log10 of the molar value.

Consider the reported pIC50 for these molecules:
MOLECULE | pIC50
CNc1cc(Nc2cccc(N3CCCC3=O)n2)nc2c(C(=O)N[C@H]3CC[C@H]3O)cnn12 [I-969] | < 4.30
CNc1cc(Nc2cccn([C@H]3CCCN(CCF)C3)c2=O)nc2c(C(=O)N[C@@H]3CC[C@H]3OC)cnn12 [I-1059] | < 4.30
CNc1cc(Nc2cccn([C@H]3CC[C@](C)(OC)CC3)c2=O)nc2c(C(=O)N[C@@H]3CC[C@H]3O)cnn12 [I-962] | < 4.30
CNc1cc(Nc2cccn(C[C@@H]3CCCCO3)c2=O)nc2c(C(=O)N[C@@H]3C[C@@H]3F)cnn12 [I-428] | < 4.30
CNc1cc(Nc2cccn(CCOC)c2=O)nc2c(C(=O)NC3CCC3)cnn12 [I-269] | < 4.30
CNc1cc(Nc2cccn(-c3cccc(F)c3)c2=O)nc2c(C(=O)N[C@H]3CC[C@H]3O)cnn12 [I-1004] | < 4.90

Query: Which pIC50 is listed for CNc1cc(-c2cn(C(C)C)c3ncccc23)nc2c(C(=O)N[C@@H]3COC[C@@H]3O)cnn12 [I-842] ?
Response: < 4.30

Query: Which pIC50 is listed for CNc1cc(Nc2cccn(-c3cccc(F)c3)c2=O)nc2c(C(=O)N[C@@H]3CC[C@H]3O)cnn12 [I-946] ?
Response: < 4.30

Query: Which pIC50 is listed for CNc1cc(Nc2cccn(-c3ncc(C)s3)c2=O)nc2c(C(=O)N[C@H]3CC[C@@H]3O)cnn12 (stereo in doubt) [I-676] ?
Response: < 5.60

Query: Which pIC50 is listed for CNc1cc(Nc2cc(C)cn(-c3cnn(C)c3)c2=O)nc2c(C(=O)NC3CC3)cnn12 [I-233] ?
Response: < 4.30

Query: Which pIC50 is listed for CNc1cc(Nc2cc(C)cn(-c3ccn(C)n3)c2=O)nc2c(C(=O)N[C@H]3C[C@H]3F)cnn12 [I-250] ?
Response: < 4.90

Query: Which pIC50 is listed for CNc1cc(Nc2cccn(C(C)C)c2=O)nc2c(C(=O)N[C@@H]3CC[C@H]3OC)cnn12 [I-917] ?
Response: < 4.30
